The next entries give measured pEC50 for LHRH binding sites on human ovarian cancer cells (EFO-27).
Non-standard residues stand in square brackets, D forms with d. Residues, ends and D or L forms follow the SMILES beside them. *: point of attachment. DOTA = O=C(O)CN1CCN(CC(=O)O)CCN(CC(=O)*)CCN(CC(=O)O)CC1; Bpa = N[C@@H](Cc1ccc(C(=O)c2ccccc2)cc1)C(=O)O; d2Nal = N[C@H](Cc1ccc2ccccc2c1)C(=O)O; azaGly = NNC(=O)O
Scale: pEC50 equals -log10([C]), with [C] in mol/L.

Sample records with pEC50:
INSERT INTO assay_data (molecule, measured_property, numeric_readout) VALUES
  ('C[C@H](NC(=O)[C@H](CO)NC(=O)[C@H](Cc1c[nH]c2ccccc12)NC(=O)[C@H](CCCNC(=N)N)NC(=O)[C@@H](Cc1ccc2ccccc2c1)NC(=O)CN1CCN(CC(=O)O)CCN(CC(=O)O)CCN(CC(=O)O)CC1)C(=O)N[C@H](CCCNC(=N)N)C(=O)N[C@@H](Cc1c[nH]c2ccccc12)C(=O)N[C@@H](Cc1ccc(C(=O)c2ccccc2)cc1)C(=O)N1CCC[C@H]1C(=O)NNC(N)=O [compound 3028] ({DOTA}-[d2Nal]RWSA[dR]W[Bpa]P[azaGly]-NH2)', 'pEC50', 5.96),
  ('CSCC[C@H](NC(=O)[C@H](Cc1c[nH]c2ccccc12)NC(=O)[C@H](CCCNC(=N)N)NC(=O)[C@@H](Cc1ccc2ccccc2c1)NC(=O)CN1CCN(CC(=O)O)CCN(CC(=O)O)CCN(CC(=O)O)CC1)C(=O)N[C@@H](Cc1c[nH]cn1)C(=O)N[C@H](CCCNC(=N)N)C(=O)N[C@@H](Cc1c[nH]c2ccccc12)C(=O)N[C@@H](Cc1ccc(C(=O)c2ccccc2)cc1)C(=O)N1CCC[C@H]1C(=O)NNC(N)=O [BRU-2964] ({DOTA}-[d2Nal]RWMH[dR]W[Bpa]P[azaGly]-NH2)', 'pEC50', 6.66),
  ('CN(CC(=O)N[C@@H](Cc1c[nH]cn1)C(=O)N[C@@H](Cc1c[nH]c2ccccc12)C(=O)N[C@@H](CO)C(=O)N[C@@H](Cc1c[nH]cn1)C(=O)N[C@H](CCCNC(=N)N)C(=O)N[C@@H](Cc1c[nH]c2ccccc12)C(=O)N[C@@H](Cc1ccc(C(=NO)c2ccccc2)cc1)C(=O)N1CCC[C@H]1C(=O)NNC(N)=O)C(=O)CN1CCN(CC(=O)O)CCN(CC(=O)O)CCN(CC(=O)O)CC1 [BRU-2907]', 'pEC50', 5.72),
  ('N=C(N)NCCC[C@H](NC(=O)[C@@H](Cc1ccc2ccccc2c1)NC(=O)CN1CCN(CC(=O)O)CCN(CC(=O)O)CCN(CC(=O)O)CC1)C(=O)N[C@@H](Cc1c[nH]c2ccccc12)C(=O)N[C@@H](CO)C(=O)N[C@@H](Cc1c[nH]cn1)C(=O)N[C@H](CCCNC(=N)N)C(=O)N[C@@H](Cc1c[nH]c2ccccc12)C(=O)N[C@@H](Cc1ccc(C(=O)c2ccccc2)cc1)C(=O)N1CCC[C@H]1C(=O)NCCCO [compound 2982]', 'pEC50', 5.95);

Switching to the query record.
(Q) Form: Entry = CN(CC(=O)N[C@@H](Cc1c[nH]cn1)C(=O)N[C@@H](Cc1c[nH]c2ccccc12)C(=O)N[C@@H](CO)C(=O)N[C@@H](Cc1c[nH]cn1)C(=O)N[C@H](CCCNC(=N)N)C(=O)N[C@@H](Cc1c[nH]c2ccccc12)C(=O)N[C@@H](Cc1ccc(-c2ccccc2)cc1)C(=O)N1CCC[C@H]1C(=O)NNC(N)=O)C(=O)CN1CCN(CC(=O)O)CCN(CC(=O)O)CCN(CC(=O)O)CC1 [BRU-2625] | System = LHRH binding sites on human ovarian cancer cells (EFO-27) | pEC50 = ____;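 also: Cell-associated radioactivity on confluent EFO-27 monolayers in 96-well plates, measured by microplate scintillation counting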
(A) 5.67
